Molecular target: T1, human IL-33 (R&D Systems, #3625-IL-010/CF) (human, UniProt O95760 112-270)
T1 construct: Commercial recombinant protein; also called hIL-33; interleukin-33
T1 sequence (looked up): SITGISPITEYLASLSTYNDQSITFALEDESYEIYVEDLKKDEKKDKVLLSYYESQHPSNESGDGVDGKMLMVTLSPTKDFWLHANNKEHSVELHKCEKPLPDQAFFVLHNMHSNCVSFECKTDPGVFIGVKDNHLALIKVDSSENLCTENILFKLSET
Assay: SPR 37C pH7.4, mAb captured
Protocol: Equilibrium dissociation constants (KD values) for IL-33 binding to purified anti-IL-33 monoclonal antibodies were determined using a real-time surface plasmon resonance biosensor using a Biacore 4000 instrument. […] Association of either hIL-33 or MfIL-33-6His to the captured monoclonal antibody was monitored for 4 minutes and their dissociation in ABS-ET running buffer was monitored for 10 minutes. […]
So basically, the class depends on measured koff, and the ranges are b0 (below 0.0006 s⁻¹), b1 (0.0006 s⁻¹ to below 0.001 s⁻¹), b2 (0.001 s⁻¹ or more)

{"binder": "H4H9663P (antibody, human IgG4, V domains shown, Human IgG4 Fc (H4H)) VH: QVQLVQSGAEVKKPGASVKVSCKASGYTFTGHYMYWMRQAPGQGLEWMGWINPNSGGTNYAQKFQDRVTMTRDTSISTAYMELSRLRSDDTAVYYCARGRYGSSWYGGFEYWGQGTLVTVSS VL: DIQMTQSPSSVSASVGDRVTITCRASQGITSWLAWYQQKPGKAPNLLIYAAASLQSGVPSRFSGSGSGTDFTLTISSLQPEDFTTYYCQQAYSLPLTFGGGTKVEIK", "class-name": "b2"}
{"binder": "H4H9675P (antibody, human IgG4, V domains shown, Human IgG4 Fc (H4H)) VH: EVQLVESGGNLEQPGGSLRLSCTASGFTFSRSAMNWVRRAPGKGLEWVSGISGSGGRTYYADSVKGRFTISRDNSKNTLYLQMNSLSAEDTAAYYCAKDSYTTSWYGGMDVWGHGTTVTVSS VL: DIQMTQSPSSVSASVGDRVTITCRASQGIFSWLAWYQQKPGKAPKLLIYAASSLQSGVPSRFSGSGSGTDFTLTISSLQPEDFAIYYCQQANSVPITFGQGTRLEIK", "class-name": "b1"}
{"binder": "H4H9671P (antibody, human IgG4, V domains shown, Human IgG4 Fc (H4H)) VH: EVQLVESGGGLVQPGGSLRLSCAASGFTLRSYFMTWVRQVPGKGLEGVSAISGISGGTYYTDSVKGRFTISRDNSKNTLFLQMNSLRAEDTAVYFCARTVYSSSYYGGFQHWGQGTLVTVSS VL: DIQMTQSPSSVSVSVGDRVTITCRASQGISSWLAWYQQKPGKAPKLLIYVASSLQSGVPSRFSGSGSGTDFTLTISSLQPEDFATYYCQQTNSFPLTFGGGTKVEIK", "class-name": "b2"}
{"binder": "H4H9665P (antibody, human IgG4, V domains shown, Human IgG4 Fc (H4H)) VH: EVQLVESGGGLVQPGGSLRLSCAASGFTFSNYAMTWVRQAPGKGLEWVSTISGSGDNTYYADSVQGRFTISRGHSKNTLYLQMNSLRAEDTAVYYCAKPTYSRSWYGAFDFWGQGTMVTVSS VL: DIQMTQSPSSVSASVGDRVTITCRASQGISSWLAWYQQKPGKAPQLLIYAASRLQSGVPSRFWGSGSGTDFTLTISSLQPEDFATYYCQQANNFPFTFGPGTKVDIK", "class-name": "b2"}
{"binder": "H4H9660P (antibody, human IgG4, V domains shown, Human IgG4 Fc (H4H)) VH: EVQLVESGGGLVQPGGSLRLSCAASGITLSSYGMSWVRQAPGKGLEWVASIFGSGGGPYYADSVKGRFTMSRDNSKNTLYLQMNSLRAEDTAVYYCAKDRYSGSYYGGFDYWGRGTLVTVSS VL: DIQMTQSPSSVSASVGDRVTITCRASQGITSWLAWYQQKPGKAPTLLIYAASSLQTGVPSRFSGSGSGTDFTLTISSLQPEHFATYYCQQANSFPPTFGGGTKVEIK", "class-name": "b0"}
{"binder": "H4H9659P (antibody, human IgG4, V domains shown, Human IgG4 Fc (H4H)) VH: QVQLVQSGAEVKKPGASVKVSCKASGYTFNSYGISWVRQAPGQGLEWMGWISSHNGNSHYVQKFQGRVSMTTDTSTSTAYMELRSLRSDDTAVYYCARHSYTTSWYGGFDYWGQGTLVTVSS VL: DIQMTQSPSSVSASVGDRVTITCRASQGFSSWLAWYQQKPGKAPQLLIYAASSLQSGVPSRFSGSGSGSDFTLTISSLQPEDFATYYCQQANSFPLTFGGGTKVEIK", "class-name": "b0"}
{"binder": "H4H9670P (antibody, V domains shown, Human IgG4 Fc (H4H)) VH: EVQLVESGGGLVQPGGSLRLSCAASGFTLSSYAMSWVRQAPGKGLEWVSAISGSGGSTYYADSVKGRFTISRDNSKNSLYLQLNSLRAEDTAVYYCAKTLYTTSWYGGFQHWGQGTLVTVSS VL: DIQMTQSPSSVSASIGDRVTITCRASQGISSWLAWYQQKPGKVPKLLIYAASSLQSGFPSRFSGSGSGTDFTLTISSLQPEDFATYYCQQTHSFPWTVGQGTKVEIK", "class-name": "b1"}
{"binder": "H1M9559N (antibody, mouse IgG1, V domains shown, Human variable domains, mouse IgG1 Fc (H1M)) VH: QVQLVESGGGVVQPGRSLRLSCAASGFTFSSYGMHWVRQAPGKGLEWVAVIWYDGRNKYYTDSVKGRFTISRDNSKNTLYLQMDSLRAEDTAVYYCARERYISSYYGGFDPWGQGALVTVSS VL: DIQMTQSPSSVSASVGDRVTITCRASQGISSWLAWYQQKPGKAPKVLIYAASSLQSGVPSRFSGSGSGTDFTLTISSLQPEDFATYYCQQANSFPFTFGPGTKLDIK", "class-name": "b1"}
{"binder": "H1M9566N (antibody, mouse IgG1, V domains shown, Human variable domains, mouse IgG1 Fc (H1M)) VH: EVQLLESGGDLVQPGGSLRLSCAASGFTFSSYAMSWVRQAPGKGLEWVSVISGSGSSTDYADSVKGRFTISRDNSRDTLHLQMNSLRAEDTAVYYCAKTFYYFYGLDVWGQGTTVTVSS VL: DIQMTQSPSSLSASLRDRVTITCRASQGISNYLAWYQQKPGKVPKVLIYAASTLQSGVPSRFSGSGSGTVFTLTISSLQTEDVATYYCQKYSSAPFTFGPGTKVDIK", "class-name": "b0"}
